- assayComment: Toxicity liver stage against HepG2, at 10uM
- Type: cell-based
- Design: test concentration 10 uM, cell line HepG2-A16-CD81EGFP
- measurementConditions: human, HepG2-A16-CD81EGFP cells; read-out: INHIBITION
experimentalReadout: cytotoxicity at 10 µM (%)
Return type: number; implicit unit %.

- compound: "COCCN1CC(c2nc(CSC)no2)CCC1=O (configuration not stated)"
  cytotoxicity at 10 µM (%): -7.74
- compound: "O=C1NC2(CCN(C(=O)c3ccnnc3)CC2)CC1c1ccccc1 (configuration not stated)"
  cytotoxicity at 10 µM (%): -113
- compound: "O=C(c1cnc2n1CCN(Cc1ccccc1)C2)N1CCCC1"
  cytotoxicity at 10 µM (%): -73.9
- compound: "CN(CCC#N)C(=O)CSc1cc(F)ccc1F"
  cytotoxicity at 10 µM (%): 13.2
- compound: "COCCOc1cccc(C(=O)N2CCCC(n3ccnc3C)C2)c1 (configuration not stated)"
  cytotoxicity at 10 µM (%): -12

Using the record for Cc1cccc(OCC(O)CN2CCC(c3ccn[nH]3)CC2)c1 (configuration not stated) , state its measured cytotoxicity at 10 µM.
-3.6

Using the record for CN(CCN1CCOCC1)C(=O)CCc1ccc(C(F)(F)F)cc1 , state its measured cytotoxicity at 10 µM.
-1.3

Using the record for Cc1[nH]c(=O)sc1S(=O)(=O)N1CCCC1C(=O)NC1CC1 (configuration not stated) , state its measured cytotoxicity at 10 µM.
5.36

Using the record for CN(CCCN1CCCCCC1)C(=O)c1ccccc1NCC(=O)O , state its measured cytotoxicity at 10 µM.
-4.84

Using the record for Cc1csc2c(=O)n3c(nc12)CCN(C(=O)c1cccnc1)CC3 , state its measured cytotoxicity at 10 µM.
-2.09

Using the record for Cc1nnc(Nc2cccc(C3CCCN(Cc4ncc[nH]4)C3)n2)s1 (configuration not stated) , state its measured cytotoxicity at 10 µM.
-5.5

Using the record for O=C(C1CCCC1)N1CCCC([C@@H]2C[C@H](C(F)F)n3ncnc3N2)C1 (some centres not stated) , state its measured cytotoxicity at 10 µM.
4.54

* * *

- assayComment: Toxicity liver stage against HepG2, at 10uM
- Assay type: cell-based
- Parameters: test concentration 10 uM, cell line HepG2-A16-CD81EGFP
- measurementConditions: human, HepG2-A16-CD81EGFP cells; read-out: INHIBITION
experimentalReadout: cytotoxicity at 10 µM (%)
Return type: number; implicit unit %.

Using the record for Nc1cccnc1N1CCC(C(F)(F)F)CC1 , state its measured cytotoxicity at 10 µM.
8.19

Using the record for CCC(CC)c1cc(CNC(=O)N2CCC(n3cncn3)CC2)on1 , state its measured cytotoxicity at 10 µM.
-4.16

Using the record for CN1CCCC2(CC1)CCN(C(=O)CCc1ccccc1F)CC2 , state its measured cytotoxicity at 10 µM.
-5.95

Using the record for CC(C)C(C)NC(=O)c1cc(Br)c2c(c1)OCCO2 (stereo unspecified) , state its measured cytotoxicity at 10 µM.
-9.89

Using the record for CCOc1ccc(Cl)c(C(=O)NC(C)C(N)=O)n1 (stereo unspecified) , state its measured cytotoxicity at 10 µM.
7.53

Using the record for CC(C)OCCC(=O)NCCC(=O)N1CCN(c2ccccn2)CC1 , state its measured cytotoxicity at 10 µM.
2.56
